Recorded values, source the supplement of paper PMC10567573.

- protocolDescription: protein stability index of a GFP-peptide fusion (GPS, HEK-293T) (PSI 1-6); higher = more stable;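 note: 24-mer peptide tiles fused after GFP, lentivirally expressed, FACS-sorted into six equal bins by GFP/DsRed ratio, decoded by Illumina sequencing, PSI is the read-weighted mean bin number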
- reportedConditions: treatment: MLN4924 1 uM, 8 h; c terminus: a fixed tail appended
parameter: protein stability index

# sequenceInput, protein stability index
records = [
    ("PESAIKFMAYEQIKRLVGSDQETL [SLC25A25]", 3.4),
    ("YRFYFYMWKFVSPLCMAVLTTASI [SLC6A17]", 4.42),
    ("PAAGLDVTQPCGDCGTIQENWVCL [HDAC6]", 2.79),
    ("EPDNWMKEVMLFGHGTRKRVPLGR [RSAD1]", 3.32),
    ("AALRIANCKLFRLQLQQGLFRIRV [GAN]", 2.58),
    ("FSGGKSGGNKKSDGVKESSESTNT [CAMK2A]", 5.36),
]

(Q) Using the record for HFAAASTHGALCLELLVNNGADVN [ANKRD44] , report its protein stability index.
(A) 2.62

(Q) Any idea what its protein stability index is? The sequence is VSATKAEAEKDGVKVPTTLAEYCI [UBE2R2]
(A) 4.5

(Q) For the sequence AQTPPRPGPPSAPPPPPKEGHQEG [SCNN1D] , what protein stability index is on record?
(A) 5.08

(Q) Report protein stability index for VIEPVVENSGILQGKLIKRQRLAK [EFHC1] please.
(A) 3.68

(Q) Give the measured protein stability index of SRKNATQPPNAEEESGSSSASEEE [INTS3] .
(A) 5.71

(Q) Sample CVKLCTGHEYAAKIINTKKLSARD [CAMK2B] — what was its protein stability index?
(A) 3.18

(Q) protein stability index for VWVGVIRYLTFFHNYNILIATLRV [MCOLN1] ?
(A) 2.86

(Q) GET /values?readout=protein stability index&item= ATNPHVKPPYSYATLICMAMQASK [FOXJ1]
(A) 2.36

(Q) Field request: protein stability index | item: EEEERLRREEEERRRIEEERLRLE [ACBD3]
(A) 5.52

(Q) protein stability index for AEGTPRSNHSAQDSAVENLLLLSK [IKZF1] ?
(A) 4.86

(Q) Look up protein stability index for this sequence: MCDAFVGTWKLVSSENFDDYMKEV [FABP4]
(A) 2.42
